- ASSAY_SYSTEM: human orexin 2 receptors (Homo sapiens (Human), UniProt O43614)
- Sequence (O43614 whole entry): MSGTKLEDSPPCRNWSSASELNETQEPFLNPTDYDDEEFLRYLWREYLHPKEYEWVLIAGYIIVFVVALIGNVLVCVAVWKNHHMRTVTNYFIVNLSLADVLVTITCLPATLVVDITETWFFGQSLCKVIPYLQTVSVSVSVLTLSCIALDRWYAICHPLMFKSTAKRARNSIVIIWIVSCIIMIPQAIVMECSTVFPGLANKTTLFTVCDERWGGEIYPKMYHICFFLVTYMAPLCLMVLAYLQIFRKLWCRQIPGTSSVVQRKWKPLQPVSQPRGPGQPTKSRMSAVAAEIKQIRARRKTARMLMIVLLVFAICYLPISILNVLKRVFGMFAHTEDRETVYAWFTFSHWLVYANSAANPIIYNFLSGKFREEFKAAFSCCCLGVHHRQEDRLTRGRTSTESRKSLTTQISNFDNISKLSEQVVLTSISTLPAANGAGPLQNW
- PROTOCOL_TEXT: Radioligand Binding Assay II ([3H]-SB649868 competition, cell membranes)
- PARTICULARS: read-out: binding II hOx2R Kd
# Kd annotations
ENDPOINT_NAME: Kd (nM)

COMPOUND	ENDPOINT_NAME	RESULT
COc1ccc(C(C)NC(=O)COc2cc(C(F)F)c3c(-c4ccccc4)nn(C)c3n2)cn1 (stereo not shown)	Kd	42
COc1ccc([C@H](C)NC(=O)COc2cc(C(F)F)c3c(C4CC4)nn(C)c3n2)cc1	Kd	27
COc1ccc([C@H](C)NC(=O)COc2cc(C(F)(F)F)c3c(-c4cc(C)oc4C)nn(C)c3n2)cc1	Kd	32
COc1ccc([C@H](C)NC(=O)COc2cc(C)c3c(-c4cc(OC)cc(OC)c4)nn(C)c3n2)cc1	Kd	498
Cc1ccc([C@H](C)NC(=O)COc2cc(C)c3c(-c4cnn(C)c4)nn(C)c3n2)cc1	Kd	82
Cc1ccc([C@H](C)NC(=O)COc2cc(C(F)F)c3c(C4CC4)nn(C)c3n2)cc1	Kd	19
COc1ccc([C@H](C)NC(=O)COc2cc(C(F)(F)F)c3c(C4CC4)nn(C)c3n2)cc1	Kd	37
Cc1ccc([C@H](C)NC(=O)COc2cc(C)c3c(C(C)C)nn(C)c3n2)cc1	Kd	76
COc1ccc2c(c1)CC[C@@H]2NC(=O)COc1cc(C(F)F)c2c(C3CC3)nn(C)c2n1	Kd	14
Cc1ccc([C@H](C)NC(=O)COc2cc(C)c3c(-c4ncco4)nn(C)c3n2)cc1	Kd	17
COc1ccc([C@H](C)NC(=O)COc2cc(C(F)(F)F)c3c(-c4ccccc4)nn(C)c3n2)cc1	Kd	3
Cc1ccc2c(n1)CC[C@@H]2NC(=O)COc1cc(C(F)(F)F)c2c(-c3cc(C)oc3C)nn(C)c2n1	Kd	90
COc1ccnc(-c2nn(C)c3nc(OCC(=O)N[C@@H](C)c4ccc(C)cc4)cc(C)c23)n1	Kd	19
COc1nc(-c2nn(C)c3nc(OCC(=O)N[C@@H](C)c4ccc(C)cc4)cc(C)c23)cs1	Kd	37
Cc1nn(C)c(C)c1C(C)NC(=O)COc1cc(C(F)F)c2c(-c3ccccc3)nn(C)c2n1 (stereo not shown)	Kd	90
Cc1ccc([C@H](C)NC(=O)COc2cc(C)c3c(-c4cccc(C)n4)nn(C)c3n2)cc1	Kd	21

----------
- ASSAY_SYSTEM: human orexin 2 receptors (Homo sapiens (Human), UniProt O43614)
- PROTOCOL_TEXT: Radioligand Binding Assay I ([125I]orexin A competition, cell membranes)
- PARTICULARS: read-out: binding I hOx2R Kd
Decision: Kd beneath 0.1 µM gives True; Kd meeting or exceeding 0.1 µM gives False.

COMPOUND	CATEGORY
Cc1nn(C)c(C)c1C(C)NC(=O)COc1cc(C(F)(F)F)c2c(-c3ccccc3)nn(C)c2n1 (centres unmarked)	True
CC(NC(=O)COc1cc(C(F)(F)F)c2c(-c3ccccc3)nn(C)c2n1)c1ccccc1 (centres unmarked)	True
Cc1ccc(-c2nn(C)c3nc(OCC(=O)N[C@@H](C)c4ccccc4)cc(C(F)(F)F)c23)cc1	False
Cn1nc(-c2cccc(F)c2)c2c(C(F)(F)F)cc(OCC(=O)N[C@H]3CCc4ccccc43)nc21	True
Cc1ccc(CNC(=O)COc2cc(C(F)(F)F)c3c(-c4ccccc4)nn(C)c3n2)cc1	False
COc1ccc(-c2nn(C)c3nc(OCC(=O)N[C@@H](C)c4ccccc4)cc(C(F)(F)F)c23)cc1	False
CC(Oc1cc(C(F)(F)F)c2c(-c3ccccc3)nn(C)c2n1)C(=O)N[C@@H](C)c1ccccc1 (single isomer, unassigned)	False
COc1ccc([C@H](C)NC(=O)COc2cc(C(F)(F)F)c3c(-c4ccccc4)nn(C)c3n2)cc1	True
COc1ccc([C@H](C)NC(=O)COc2cc(C)c3c(C4CC4)nn(C)c3n2)cc1	True
C[C@H](NC(=O)COc1cc(C(F)(F)F)c2c(-c3ccccc3)cn(C)c2n1)c1ccccc1	False
COc1cccc(-c2nn(C)c3nc(OCC(=O)N[C@@H](C)c4ccccc4)cc(C(F)(F)F)c23)c1	False
Cc1cc(OCC(=O)N[C@@H](C)c2ccccc2)nc2c1c(-c1ccccc1)nn2C	False
C[C@H](CNC(=O)COc1cc(C(F)(F)F)c2c(-c3ccccc3)nn(C)c2n1)c1ccccc1	True
CCn1nccc1C(C)NC(=O)COc1cc(C(F)(F)F)c2c(-c3ccccc3)nn(C)c2n1 (centres unmarked)	False
C[C@H](NC(=O)COc1cc(C(F)(F)F)c2c(-c3ccccc3F)nn(C)c2n1)c1ccccc1	True
Cc1ccc(C(C)NC(=O)COc2cc(C(F)(F)F)c3c(-c4ccccc4)nn(C)c3n2)cn1 (centres unmarked)	True
COc1ccc(CNC(=O)COc2cc(C(F)(F)F)c3c(-c4ccccc4)nn(C)c3n2)cc1	False
Cc1cccc(-c2nn(C)c3nc(OCC(=O)N[C@@H](C)c4ccccc4)cc(C(F)(F)F)c23)c1	False
Cn1nc(-c2ccccc2F)c2c(C(F)(F)F)cc(OCC(=O)N[C@H]3CCc4ccccc43)nc21	False
COc1ccc(C(C)NC(=O)COc2cc(C(F)(F)F)c3c(-c4ccccc4)nn(C)c3n2)cc1 (centres unmarked)	True
Cn1nc(-c2ccccc2)c2c(C(F)(F)F)cc(OCC(=O)N[C@H]3CCc4ccccc43)nc21	False
C[C@H](NC(=O)COc1cc(C(F)(F)F)c2c(-c3cccc(Br)c3)nn(C)c2n1)c1ccccc1	False
C[C@H](NC(=O)COc1cc(C(F)(F)F)c2c(-c3ccccc3)nn(C)c2n1)c1ccccc1	False
Cc1cc(OCC(=O)NC(C)CCc2ccccc2)nc2c1c(-c1ccccc1)nn2C (centres unmarked)	True
C[C@H](NC(=O)COc1cc(C(F)(F)F)c2c(-c3cccc(F)c3)nn(C)c2n1)c1ccccc1	True
COc1ccc(C(C)NC(=O)COc2cc(C(F)(F)F)c3c(-c4ccccc4)nn(C)c3n2)cn1 (centres unmarked)	True
C[C@H](NC(=O)COc1cc(C(F)(F)F)c2c(-c3ccc(F)cc3)nn(C)c2n1)c1ccccc1	False
COc1ccccc1-c1nn(C)c2nc(OCC(=O)N[C@@H](C)c3ccccc3)cc(C(F)(F)F)c12	False

Entry source: patent US8742106B2
